# IC50 per entry
Target: Full length human recombinant PIKFYVE (Homo sapiens)
Construct: Full length human recombinant PIKFYVE
Sequence (Q9Y2I7 whole entry): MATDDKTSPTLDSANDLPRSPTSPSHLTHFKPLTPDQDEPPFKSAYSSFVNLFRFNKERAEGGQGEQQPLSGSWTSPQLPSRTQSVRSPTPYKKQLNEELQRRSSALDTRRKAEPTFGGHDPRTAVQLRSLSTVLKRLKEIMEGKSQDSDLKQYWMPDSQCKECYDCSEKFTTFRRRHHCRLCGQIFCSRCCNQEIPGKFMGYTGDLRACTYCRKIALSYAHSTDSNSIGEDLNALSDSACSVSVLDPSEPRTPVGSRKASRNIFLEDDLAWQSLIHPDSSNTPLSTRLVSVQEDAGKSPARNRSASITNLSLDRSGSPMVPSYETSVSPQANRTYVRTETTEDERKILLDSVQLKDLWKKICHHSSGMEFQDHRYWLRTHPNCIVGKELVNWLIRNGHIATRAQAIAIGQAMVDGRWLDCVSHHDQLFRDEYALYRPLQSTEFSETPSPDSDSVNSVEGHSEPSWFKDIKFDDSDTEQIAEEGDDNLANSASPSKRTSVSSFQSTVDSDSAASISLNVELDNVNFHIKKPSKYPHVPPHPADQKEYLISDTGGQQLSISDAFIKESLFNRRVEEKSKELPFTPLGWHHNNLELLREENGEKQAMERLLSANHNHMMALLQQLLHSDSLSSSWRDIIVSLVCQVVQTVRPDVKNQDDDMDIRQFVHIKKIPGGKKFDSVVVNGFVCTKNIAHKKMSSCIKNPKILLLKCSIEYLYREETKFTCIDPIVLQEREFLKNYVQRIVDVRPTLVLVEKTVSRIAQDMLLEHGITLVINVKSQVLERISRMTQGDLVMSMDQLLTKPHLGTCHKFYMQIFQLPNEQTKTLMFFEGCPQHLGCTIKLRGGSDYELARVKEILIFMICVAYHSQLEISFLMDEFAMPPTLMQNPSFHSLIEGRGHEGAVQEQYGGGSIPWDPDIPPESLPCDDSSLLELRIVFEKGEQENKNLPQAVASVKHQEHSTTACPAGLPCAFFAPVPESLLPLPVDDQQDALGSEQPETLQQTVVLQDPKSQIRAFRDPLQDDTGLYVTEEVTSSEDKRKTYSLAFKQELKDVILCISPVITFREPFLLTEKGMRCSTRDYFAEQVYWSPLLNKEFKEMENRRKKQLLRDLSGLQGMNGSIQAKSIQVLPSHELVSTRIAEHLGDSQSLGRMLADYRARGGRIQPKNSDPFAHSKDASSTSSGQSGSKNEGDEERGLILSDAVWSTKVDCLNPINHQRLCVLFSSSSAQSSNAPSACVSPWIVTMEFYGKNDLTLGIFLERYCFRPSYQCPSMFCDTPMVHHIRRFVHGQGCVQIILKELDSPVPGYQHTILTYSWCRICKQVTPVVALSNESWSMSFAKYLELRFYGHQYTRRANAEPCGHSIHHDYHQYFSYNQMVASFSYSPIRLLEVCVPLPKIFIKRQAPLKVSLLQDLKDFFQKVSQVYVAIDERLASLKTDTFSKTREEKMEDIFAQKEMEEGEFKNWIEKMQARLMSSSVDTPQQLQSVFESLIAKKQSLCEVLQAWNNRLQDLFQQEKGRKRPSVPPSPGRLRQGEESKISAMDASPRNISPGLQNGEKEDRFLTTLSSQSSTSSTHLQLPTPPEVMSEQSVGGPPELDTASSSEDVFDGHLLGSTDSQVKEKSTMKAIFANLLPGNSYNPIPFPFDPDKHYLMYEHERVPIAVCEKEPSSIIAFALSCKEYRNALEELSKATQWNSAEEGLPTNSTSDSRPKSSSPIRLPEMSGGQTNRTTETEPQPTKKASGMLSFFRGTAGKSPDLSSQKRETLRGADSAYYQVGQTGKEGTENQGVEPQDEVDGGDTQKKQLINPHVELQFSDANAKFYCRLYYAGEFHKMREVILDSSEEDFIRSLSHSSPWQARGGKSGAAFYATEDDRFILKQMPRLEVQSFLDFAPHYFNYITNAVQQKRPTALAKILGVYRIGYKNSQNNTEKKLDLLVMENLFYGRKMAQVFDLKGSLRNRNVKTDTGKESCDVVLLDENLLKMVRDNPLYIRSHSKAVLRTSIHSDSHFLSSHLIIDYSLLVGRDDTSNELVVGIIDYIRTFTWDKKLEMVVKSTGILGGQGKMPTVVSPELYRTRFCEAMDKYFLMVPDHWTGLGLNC
Experiment: Inhibition of PIKfyve (microfluidic electrophoresis kinase assay, PI3P/PS substrate)
Conditions: 12 concentrations

{"Chemical string": "Cc1cccc(-c2ccn(-c3nc(N4CCOCC4)c4oc(-c5ccccn5)c(C(F)(F)F)c4n3)n2)c1", "IC50": "> 10 µM"}
{"Chemical string": "Cc1c(-c2ccccn2)oc2c(N3CCOCC3)nc(-n3ccc(-c4ccccc4)n3)nc12", "IC50": "≥ 10 µM"}
{"Chemical string": "CNC(=O)c1cc2nc(Nc3cc(CC4CCCC4)n[nH]3)nc(N3CCOCC3)c2o1", "IC50": "≥ 20 µM"}
